# Test Name: Exposure and pharmacokinetics of sulfasalazine in spinal cord and plasma of SOD1 mice
# Recorded Conditions: SOD1, mouse, spinal cord/plasma, ip, 200 mg/kg
Measured Metric: Kp at 45 min
Form rule: numeric answer, no unit written next to it.

INPUT: Field request: Kp at 45 min | item: O=C(O)c1cc(/N=N/c2ccc(S(=O)(=O)Nc3ccccn3)cc2)ccc1O
OUTPUT: 0.13

----------
# Test Name: Exposure and pharmacokinetics of sulfasalazine in spinal cord and plasma of SOD1 mice
# Recorded Conditions: SOD1, mouse, plasma, ip, 200 mg/kg, mean, SOD1 mice; 200 mg/kg IP; 120 min; n=3
Measured Metric: concentration at 120 min (µg/mL)
Report the figure in µg/mL without appending any unit label.

INPUT: Field request: concentration at 120 min | item: O=C(O)c1cc(/N=N/c2ccc(S(=O)(=O)Nc3ccccn3)cc2)ccc1O
OUTPUT: 19.2
